Source: paper PMC12806454

# target.or.test.system: Mpro of MERS (Middle East respiratory syndrome-related coronavirus, UniProt K9N7C7)
# Sequence (K9N7C7 3248-3553 limits assumed): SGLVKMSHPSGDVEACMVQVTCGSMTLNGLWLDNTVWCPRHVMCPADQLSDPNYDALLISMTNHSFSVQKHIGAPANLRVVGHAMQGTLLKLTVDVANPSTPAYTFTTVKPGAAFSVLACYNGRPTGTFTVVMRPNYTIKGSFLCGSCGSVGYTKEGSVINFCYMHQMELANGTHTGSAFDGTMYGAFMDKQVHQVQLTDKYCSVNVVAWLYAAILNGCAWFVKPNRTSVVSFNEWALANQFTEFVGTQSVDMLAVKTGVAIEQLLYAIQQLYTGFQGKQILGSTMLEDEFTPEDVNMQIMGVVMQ
reported.endpoint: pIC50
Quick note: pIC50 means taking -log10 of the concentration in moles per liter.

query: Recorded pIC50 of O=C(NC1CCCC1)C(=O)[C@H](C[C@@H]1CCNC1=O)NC(=O)[C@@H]1[C@H]2CCC[C@H]2CN1C(=O)[C@@H](NC(=O)C(F)(F)F)C1CCCCC1 , please.
result: 6.02

====

Record: pIC50 reported on Mpro of HKU1 (Human coronavirus HKU1, UniProt P0C6X2).
Sequence (P0C6X2 3335-3637): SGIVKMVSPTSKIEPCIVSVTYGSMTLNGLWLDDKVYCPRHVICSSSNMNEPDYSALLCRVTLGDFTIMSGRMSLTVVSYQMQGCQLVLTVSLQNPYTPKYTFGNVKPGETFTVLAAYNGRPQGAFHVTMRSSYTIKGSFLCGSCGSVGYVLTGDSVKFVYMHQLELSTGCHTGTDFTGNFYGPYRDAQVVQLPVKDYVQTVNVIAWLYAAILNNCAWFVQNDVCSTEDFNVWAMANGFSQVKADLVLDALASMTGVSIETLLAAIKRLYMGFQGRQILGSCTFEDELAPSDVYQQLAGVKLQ
Quick note: pIC50 means taking -log10 of the concentration in moles per liter.

| compound | target.or.test.system | reported.endpoint | measured.number |
| --- | --- | --- | --- |
| O=C(NC1CCCC1)C(=O)[C@H](C[C@@H]1CCNC1=O)NC(=O)[C@@H]1[C@H]2CCC[C@H]2CN1C(=O)[C@@H](NC(=O)C(F)(F)F)C1CCCCC1 [Leritrelvir, leritrelvir] | Mpro of HKU1 (Human coronavirus HKU1, UniProt P0C6X2) | pIC50 | 7.28 |

Turning now to a further compound:
query: pIC50 of CC(C)CC(NC(=O)OCc1ccccc1)C(=O)NC(CC1CCNC1=O)C(O)S(=O)(=O)O (centres unmarked) [GC376] on Mpro of HKU1 (Human coronavirus HKU1, UniProt P0C6X2)?
result: 7.14
